Experiment: Cassette pharmacokinetics in brain and plasma, male CD-1 mice
Format: in vivo, mouse
Settings: male, CD-1, mouse, brain, iv, 2 mg/kg
outcome-measure: concentration at 15 min (ng/g)
Give bare numbers, in ng/g.

Asked: # lookup: concentration at 15 min of O=C(OC(C(F)(F)F)C(F)(F)F)N1Cc2ccc(OCCN3CCOCC3)cc2C1 [22f]
Given back: 735

----------
Assay: Cassette pharmacokinetics in brain and plasma, male CD-1 mice
Type: in vivo, mouse
Details: male, CD-1, mouse, brain, intravenous, 2 mg/kg
outcome-measure: Kp at 15 min
One number for each entry.

Asked: # lookup: Kp at 15 min of O=C(OC(C(F)(F)F)C(F)(F)F)N1Cc2ccc(OCCN3CCOCC3)cc2C1 [22f]
Given back: 1.2

----------
Assay: Cassette pharmacokinetics in brain and plasma, male CD-1 mice
Type: in vivo, mouse
Details: male, CD-1, mouse, brain, po, 8 mg/kg
outcome-measure: concentration at 30 min (ng/g)
Numbers only, in ng/g.

Asked: # lookup: concentration at 30 min of O=C(OC(C(F)(F)F)C(F)(F)F)N1Cc2ccc(OCCN3CCOCC3)cc2C1 [22f]
Given back: 248

----------
Biological target: hMGL (Homo sapiens)
Assay: Fluorescence-based hMGL inhibition counterscreen
Assay type: biochemical
Hi there, I'd appreciate the recorded IC50 for every entry that follows.
One number for each entry, in nM.

// each listed compound needs a value for IC50
1. N#Cc1cccc(OC(=O)N2CC(OC(c3ccc(F)cc3)c3ccc(F)cc3)C2)c1 [5a]
2. O=C(OC(C(F)(F)F)C(F)(F)F)N1CC(OC(c2ccc(F)cc2)c2ccc(F)cc2)C1 [6b]

Given back:
[66.1, 6.4]

----------
Assay: Cassette pharmacokinetics in brain and plasma, male CD-1 mice
Format: in vivo, mouse
Details: male, CD-1, mouse, plasma, po, 8 mg/kg
outcome-measure: concentration at 30 min (ng/mL)
Give bare numbers, in ng/mL.

Asked: # lookup: concentration at 30 min of O=C(OC(C(F)(F)F)C(F)(F)F)N1Cc2ccc(OCCN3CCOCC3)cc2C1 [22f]
Given back: 180

----------
Assay: Cassette pharmacokinetics in brain and plasma, male CD-1 mice
Assay type: in vivo, mouse
Conditions: male, CD-1, mouse, brain, po, 8 mg/kg
outcome-measure: concentration at 60 min (ng/g)
Give bare numbers, in ng/g.

Asked: # lookup: concentration at 60 min of O=C(OC(C(F)(F)F)C(F)(F)F)N1Cc2ccc(OCCN3CCOCC3)cc2C1 [22f]
Given back: 227

----------
Assay: Cassette pharmacokinetics in brain and plasma, male CD-1 mice
Type: in vivo, mouse
Conditions: male, CD-1, mouse, plasma, oral, 8 mg/kg
outcome-measure: bioavailability

Asked: # lookup: bioavailability of O=C(OC(C(F)(F)F)C(F)(F)F)N1Cc2ccc(OCCN3CCOCC3)cc2C1 [22f]
Given back: 28%

----------
Molecular target: UniProt Q99685
Sequence (Q99685 1-303): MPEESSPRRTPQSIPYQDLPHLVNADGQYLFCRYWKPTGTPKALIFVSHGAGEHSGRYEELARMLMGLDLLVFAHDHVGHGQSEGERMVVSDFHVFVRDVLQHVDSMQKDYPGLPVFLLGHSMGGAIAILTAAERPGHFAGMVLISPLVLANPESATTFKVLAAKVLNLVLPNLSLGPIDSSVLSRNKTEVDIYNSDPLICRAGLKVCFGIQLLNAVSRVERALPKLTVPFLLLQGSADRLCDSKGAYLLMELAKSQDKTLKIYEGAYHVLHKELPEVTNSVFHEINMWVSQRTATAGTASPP
Assay: Fluorescence-based hMGL inhibition counterscreen
Format: biochemical
Conditions: read-out: IC50 (nM) ± SEM hMGL; triplicate, eight concentrations
outcome-measure: IC50 (nM)
One number for each entry, in nM.

CN(C1CN(C(=O)OC(C(F)(F)F)C(F)(F)F)C1)C(c1ccc(F)cc1)c1ccc(F)cc1 [9d]    83.5

Turning now to a further molecule:
Asked: Checklist item: IC50 tested on UniProt Q99685, entry O=C(OC(C(F)(F)F)C(F)(F)F)N1CC(C(c2ccccc2)c2ccccc2)C1 [10d] , value?
Given back: 348

----------
Molecular target: hFAAH (Homo sapiens)
Sequence (O00519 1-579): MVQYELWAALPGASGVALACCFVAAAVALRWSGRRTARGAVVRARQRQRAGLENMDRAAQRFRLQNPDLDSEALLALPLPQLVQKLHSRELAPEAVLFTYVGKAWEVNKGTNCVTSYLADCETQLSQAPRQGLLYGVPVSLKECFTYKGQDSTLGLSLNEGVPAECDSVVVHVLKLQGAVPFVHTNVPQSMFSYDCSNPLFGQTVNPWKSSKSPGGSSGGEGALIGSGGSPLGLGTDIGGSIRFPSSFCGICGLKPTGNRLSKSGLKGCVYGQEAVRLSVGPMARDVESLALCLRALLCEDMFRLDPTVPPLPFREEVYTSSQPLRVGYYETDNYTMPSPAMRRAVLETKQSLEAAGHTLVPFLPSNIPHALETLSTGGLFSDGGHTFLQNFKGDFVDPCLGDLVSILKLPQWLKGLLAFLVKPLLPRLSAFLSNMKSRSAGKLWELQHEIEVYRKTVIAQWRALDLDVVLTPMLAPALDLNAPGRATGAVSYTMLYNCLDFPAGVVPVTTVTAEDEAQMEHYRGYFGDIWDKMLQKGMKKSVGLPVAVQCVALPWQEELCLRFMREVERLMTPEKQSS
Assay: Fluorescence-based hFAAH inhibition counterscreen
Type: biochemical
Details: inactive tested at 1uM
outcome-measure: hFAAH inhibition, result in words

Take a look at these entries with their results.
CN(C1CN(C(=O)OC(C(F)(F)F)C(F)(F)F)C1)C(c1ccc(F)cc1)c1ccc(F)cc1    inactive
O=C(O[C@H](CO)C(F)(F)F)N1CCc2c(Br)cccc2C1 [14j]    inactive
O=C(OC(C(F)(F)F)C(F)(F)F)N1CC(C(c2ccccc2)c2ccccc2)C1 [10d]    inactive
O=C(OC(C(F)(F)F)C(F)(F)F)N1CC(OC(c2ccc(F)cc2)c2ccc(F)cc2)C1    inactive

Turning now to a further compound:
Asked: # lookup: hFAAH inhibition, result in words of CC1(C)C2C(=O)N(OC(=O)N3CCc4c(Br)cccc4C3)C(=O)C21 (stereo not drawn) [25b]
Given back: inactive

These measurements were taken from paper PMC8898323.
